Tested on: NCI-H522
Assay: NCI tumour cell line growth inhibition, 48 h
Structures can show the parent of a compound that is named as a salt. The source made the active and inactive calls. Cut-off read from the data, not from the text of the source: active = GI50 up to about 1.1 µM and inactive = higher.
The reply should be one of these categories: true = active, false = inactive

[[record]]
compound = "CC(CN1c2ccccc2Sc2ccccc21)N(C)C (centres undefined) [PROMETHAZINE HYDROCHLORIDE]"
category_label = "false"


Input: What was the test verdict on N#C[C-](C#N)[n+]1ccc(Cl)cc1 ?
Output: false

Input: Also check O=C1/C(=C\c2cccc(Oc3ccccc3)c2)SC(c2ccccc2)N1c1cc(Cl)ccc1Cl (centres undefined)
Output: false

Input: Also check C=CCN1C(=O)CC1N(CC=C)S(=O)(=O)c1ccc(C)cc1 (centres undefined)
Output: false

Input: Also check CC(C)(C)O/N=C/c1cc(NC(=S)c2ccsc2)ccc1Cl
Output: false

Input: Also check O=S(=O)(O)c1cc(/N=N/c2c(O)ccc3ccccc23)cc2c(S(=O)(=O)O)cccc12
Output: false

Input: Also check CCN(CC)c1ccc(C(=C2C=CC(=[N+](CC)CC)C=C2)c2ccc(N(CC)CC)cc2)cc1
Output: true

Input: Also check CCCNC(=O)OCc1c(COC(=O)NCCC)c(-c2ccc(Cl)c(Cl)c2)n2c1CCC2
Output: false

Input: Also check CCOC(=O)c1c(-c2ccc(OC)cc2)c(C#N)c(=S)n(C2OC(COC(C)=O)C(OC(C)=O)C(OC(C)=O)C2OC(C)=O)c1C (centres undefined)
Output: false
